System: COLO 205 colon
assay.notes: NCI tumour cell line growth inhibition, 48 h
experimental.endpoint: TGI

Input: I'd like to know its TGI. The compound in question is `COC(=O)/C=C(\C(=O)OC)c1c2c3c(cc(OC)c(OC)c3c3ccccc13)CCN2C`
Output: 31.7 µM

Input: Fill in the blank: the reported TGI of `CC1=CC[C@@]2(CO)[C@@H]([C@@H]1C)[C@H]1CC[C@@H]3[C@@]4(C)CC[C@H](O)C(C)(C)[C@@H]4CC[C@@]3(C)[C@]1(C)C[C@@H]2O` is ____.
Output: 50.2 µM

Input: Give its TGI value. Item: `O=C(O)CCc1ccc2c(c1)C(=O)CC2`
Output: > 100 µM

Input: May I ask what TGI has been recorded for O=C(O)C[C@H]1CCCCC12CCOC2=O (stereo not given in full) ?
Output: > 100 µM

Input: Request the reported TGI associated with `c1cc2[nH]ncc2cc1-c1nc2ccc3[nH]ncc3c2c2c1CCCC2`
Output: 8.36 µM

Input: Quick one: TGI of `Cl.Fc1c[c-]c(-c2ccccn2)c(F)c1.[Pt].c1ccc(P(c2ccccc2)C([PH+](c2ccccc2)c2ccccc2)[PH+](c2ccccc2)c2ccccc2)cc1` ?
Output: 3.92 µM

Input: Which measured TGI value corresponds to `O=C1C(=O)c2c(nc3ccc(Br)cn23)-c2ccccc21` ?
Output: 3.55 µM

Input: Name the reported TGI value associated with the compound `CC(=O)Nc1ccc(-c2nc3ccccc3s2)cc1I`
Output: > 100 µM

Input: Any idea what its TGI is? The compound is `Cc1nc2c(=O)n(-c3ccccc3)c3ccccc3c2o1`
Output: > 100 µM

Input: Which TGI is reported for this compound? `Cc1oc2c(Cl)cc(O)c(Cl)c2c2cccc1-2`
Output: > 100 µM

Source of measurements: PubChem BioAssay (NCI)
